- assayTarget: Farnesyl pyrophosphate synthase (Homo sapiens)
- Sequence (P14324 whole entry): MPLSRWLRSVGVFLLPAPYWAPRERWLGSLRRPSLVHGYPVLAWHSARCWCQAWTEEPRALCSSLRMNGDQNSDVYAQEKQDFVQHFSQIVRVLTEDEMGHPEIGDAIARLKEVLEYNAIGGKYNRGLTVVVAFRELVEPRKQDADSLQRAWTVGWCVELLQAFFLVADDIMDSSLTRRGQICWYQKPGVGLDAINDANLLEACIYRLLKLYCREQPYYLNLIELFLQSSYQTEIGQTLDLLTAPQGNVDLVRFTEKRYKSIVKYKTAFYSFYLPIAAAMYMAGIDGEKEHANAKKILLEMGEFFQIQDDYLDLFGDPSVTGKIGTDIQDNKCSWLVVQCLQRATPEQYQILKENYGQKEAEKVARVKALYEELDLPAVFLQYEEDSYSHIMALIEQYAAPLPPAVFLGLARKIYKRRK
- methodNotes: Inhibition of human recombinant N-terminal-His6 tagged FPPS expressed in Escherichia coli BL21 using [3H]IPP and GPP as substrate measured after 20 mins by liquid scintillation counting
pIC50: −log10 of the molar value.
observable: pIC50

> print(dat)
                                querysmiles  datavalue
1  O=P(O)(O)C(Nc1cc(-c2ccc(OC3CCC3)cc2)ccn1)P(=O)(O)O       5.68
2  O=P(O)(O)C(Nc1cc(-c2ccc(OC3CCCC3)cc2)ccn1)P(=O)(O)O       6.11
